Would you mind telling me the reported melting point of each entry?

Example entries begin here.
molecule="N#Cc1cccc(OCc2cccc(OCc3ccc4ccccc4n3)c2)c1 [Example 7]" result="86 to 87 °C"
molecule="c1cc(OCc2cccc(-c3nnn[nH]3)c2)cc(OCc2ccc3ccccc3n2)c1 [Example 28]" result="115 °C (dec.)"
molecule="COc1cc(C(=O)O)ccc1OCc1cccc(OCc2ccc3ccccc3n2)c1 [Example 15]" result="188 to 190 °C"
molecule="c1cc(OCc2ccc3ccccc3n2)cc(OCc2ccccc2-c2nnn[nH]2)c1 [Example 28]" result="166 to 170 °C"
molecule="c1cc(COc2cccc(-c3nnn[nH]3)c2)cc(OCc2ccc3ccccc3n2)c1 [Example 10]" result="169 to 172 °C"

Give one value of melting point per listed molecule.
1. O=C(O)c1cccc(COc2cccc(OCc3ccc4ccccc4n3)c2)c1 [Example 20]
2. c1cc(OCc2ccc(Cc3nnn[nH]3)cc2)cc(OCc2ccc3ccccc3n2)c1 [Example 28]
3. COC(=O)c1ccc(OCc2cccc(OCc3ccc4ccccc4n3)c2)c(OC)c1 [Example 14]
4. COC(=O)c1cccc(COc2cccc(OCc3ccc4ccccc4n3)c2)c1 [Example 19]
5. c1ccc2nc(COc3ccc(COc4ccc(-c5nnn[nH]5)cc4)cc3)ccc2c1 [Example 11]
6. c1cc(OCc2ccc3ccccc3n2)cc(OCc2ccccc2Cc2nnn[nH]2)c1 [Example 28]
7. c1ccc2nc(COc3ccc(COc4ccc(Cc5nnn[nH]5)cc4)cc3)ccc2c1 [Example 12]

149 to 151 °C
149 to 151 °C
100 to 101 °C
93 to 94 °C
210 to 213 °C
145.5 to 147 °C
179 to 181 °C

Item c1cc(COc2ccc(OCc3ccc4ccccc4n3)cc2)cc(OCc2nnn[nH]2)c1 [Example 32] has what recorded melting point?
131 to 132 °C
